I'd be grateful if you could share measured z-score for these entries.
# EXPERIMENTAL_PROTOCOL: inhibition of PAO1 biofilm formation – strain PAO1, LB-PBS medium, absorbance 600 nm, primary screen (AID 1176); note: test concentration not given here
# ASSAY_CONTEXT: P. aeruginosa PAO1 growth/biofilm, A600, 12 h; higher = more signal
Numbers only.

Examples with answers:
COMPOUND	ASSAY_METRIC	REPORTED_MEASUREMENT
Cc1ccc(/C=C/C=O)cc1	z-score	-0.64
C=CCC(OC(C)=O)[C@@H]1[C@@H](N(Cc2ccc(-c3ccccc3)cc2)C(=O)Cc2ccc(F)cc2)c2cc(OCCCO)ccc2N1C(=O)c1ccc2ccccc2c1 (stereo not given in full)	z-score	0.0885
N#Cc1ccc(C(O)C2C=CC3C(=O)N(c4ccccc4)C(=O)C3N2Nc2ccccc2F)cc1 (stereo not given)	z-score	0.0083

# per-item lookup of z-score; items listed below
1. COC(=O)[C@@]1(Cc2ccc(OC)cc2)[C@H]2c3cc(C(=O)N4CCCC4)n(CCCNc4ncc(C(F)(F)F)cc4Cl)c3C[C@H]2CN1C(=O)c1ccccc1
2. COc1ccc([Si](C)(C)[C@H]2[C@H](CC(=O)N3CCC[C@H]3CO)O[C@@]3(C(=O)N(Cc4cccc(N5CCOC5=O)c4)c4ccccc43)[C@@H]2C)cc1
3. CCOC(=O)C[C@H]1[C@H](OC(=O)c2ccc(-c3ccccc3)cc2)[C@@H](NC(=O)c2ccccc2)c2cc(OCCCO)ccc2N1C(=O)Cc1ccc(OC)cc1
4. CC(CO)N1C(=O)[C@@H]2C3C(=O)OCCC/C=C\[C@H]3OC23C=CCN(CCN2CCOCC2)C(=O)[C@@H]13 (stereo not given in full)
5. CCCC(=O)N(CCc1c[nH]c2ccccc12)[C@@H]1CC(C(=O)NCCO)=C[C@H](Oc2c(I)cc(CO)cc2OC)[C@H]1O
6. CCCCCCc1nc(-c2ccc(-c3ccc(Cl)c(Cl)c3)o2)c(C)c2c1[Si](C(C)C)(C(C)C)OC2

Completion:
1. -0.0982
2. -0.249
3. 0.845
4. 0.053
5. 0.789
6. 0.668

I would be grateful if you could provide z-score for each of the following entries.
1. COc1ccc(NC(=O)O[C@H]2[C@H](OC(=O)c3cc4ccccc4[nH]3)[C@@H](OC(=O)c3cc4ccccc4[nH]3)[C@@H](OC)O[C@@H]2CO)cc1
2. CC(=O)NCCCC[C@@H]1NC(=O)[C@H]2C[C@@H](C(=O)NCCCCCNC(=O)CS)[C@@H](c3ccc(O)cc3)N2C1=O
3. COc1ccc(C(O)C2C=CC3C(=O)N(C)C(=O)C3N2N(c2ccccc2)c2ccccc2)c2ccccc12 (stereo not given)
4. COC(=O)c1c(CC[C@@H](CO)NC(=O)NCCc2c[nH]c3ccccc23)oc(C(=O)Cc2ccccc2)c1C(=O)OC
5. CC(=O)Nc1cc(Br)ccc1C(=O)NCc1ccccc1

Completion:
0.305
0.395
0.447
-0.771
-0.131
